Target: BTK (Homo sapiens, UniProt Q06187)
Construct: purchased Nanosyn, Santa Clara, Calif; host or cells: 293HEK
Sequence (Q06187 whole entry): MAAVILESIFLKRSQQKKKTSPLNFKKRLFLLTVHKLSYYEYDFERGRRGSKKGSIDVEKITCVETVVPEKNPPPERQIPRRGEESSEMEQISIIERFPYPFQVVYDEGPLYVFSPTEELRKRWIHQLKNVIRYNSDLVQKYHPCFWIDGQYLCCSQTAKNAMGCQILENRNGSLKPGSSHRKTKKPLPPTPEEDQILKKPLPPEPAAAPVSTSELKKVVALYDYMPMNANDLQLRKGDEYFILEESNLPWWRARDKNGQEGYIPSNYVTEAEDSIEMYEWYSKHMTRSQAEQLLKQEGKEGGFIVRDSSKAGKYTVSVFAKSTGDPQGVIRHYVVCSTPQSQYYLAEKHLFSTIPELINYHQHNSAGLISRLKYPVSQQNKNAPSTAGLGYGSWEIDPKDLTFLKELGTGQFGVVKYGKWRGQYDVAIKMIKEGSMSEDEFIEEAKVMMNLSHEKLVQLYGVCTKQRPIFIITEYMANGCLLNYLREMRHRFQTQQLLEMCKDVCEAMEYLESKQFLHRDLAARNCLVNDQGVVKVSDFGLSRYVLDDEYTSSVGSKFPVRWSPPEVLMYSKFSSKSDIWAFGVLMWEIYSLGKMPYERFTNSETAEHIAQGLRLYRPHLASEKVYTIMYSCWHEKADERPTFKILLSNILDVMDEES
Assay: BTK kinase electrophoretic mobility shift assay (MSA)
Assay type: biochemical
Conditions: 50 μM ATP, 0.5 nM BTK enzyme (Nanosyn-293HEK, WT), 3 hours at 25° C.; all examples except 50, 51, 62 and 63; read-out: BTK IC50
Recorded Metric: IC50 (nM)
Output spec: scalar in nM, unitless text.

Example cases with answers are listed next.
| Molecule | IC50 (nM) |
| --- | --- |
| C=CC(=O)N1CCN([C@@H]2CCNc3c2nn(-c2ccc(Oc4cc(F)ccc4F)cc2)c3C(N)=O)CC1 [Example 74] | 1.51 |
| C=CC(=O)N1CCN([C@@H]2CCNc3c2nn(-c2ccc(Oc4ccccc4OC(F)(F)F)cc2)c3C(N)=O)CC1 [Example 90] | 1.29 |
| C=CC(=O)N1CCC(C2CCNc3c2nn(-c2ccc(Oc4cccc(F)c4)cc2)c3C(N)=O)CC1 (centres unmarked) [Example 12] | 0.495 |

Provide the documented IC50 with BTK (Homo sapiens, UniProt Q06187) as the system for C=CC(=O)N1CCC([C@H]2CCNc3c2nn(-c2ccc(Oc4ccc(F)cc4F)cc2)c3C(N)=O)CC1 [Example 30] 1.05

Provide the documented IC50 with BTK (Homo sapiens, UniProt Q06187) as the system for C=CC(=O)N1CCN(C2CCNc3c2nn(-c2ccc(Oc4ccccc4)cc2)c3C(N)=O)C[C@H]1C(C)C (some centres unmarked) [Example 20] 3.17

Origin of values: patent US20220213092A1
